test system: Trypanosoma cruzi; assay: Trypanosoma cruzi phosphomannomutase and mannose-1-phosphate guanylyltransferase assay; format: functional; set-up: scale not given: direction of the effect not stated beside the values; details: 10 µM
// Percent Effect lookup, one value per entry
REPORTED_ENDPOINT: Percent Effect (%)

MOLECULE | ENDPOINT_RESULT
Cc1cc2c(=O)n3c(nc2s1)CCN(Cc1cnn(C)c1C)CC3 | -4.74
CCc1cnc(C)nc1NCCN1CCCCCC1 | -0.295
CC(C)Cc1noc(CN(C)C(=O)C2COc3ccccc3C2)n1 (stereo unspecified) | -0.0983
O=C([C@H]1C[C@H]2OCC[C@H]2N(CCc2ccccc2)C1)N1CCCCO1 | -0.0978
Cc1ncsc1C(=O)N(Cc1cccnc1)C1CC1 | 5.92
CCOCCCn1c(NC(=O)c2ccc(C)nc2)nc2ccccc21 | 2.25
CC(O)CN1CCN(C(=O)c2ccc(N(C)C)nn2)CC1 (stereo unspecified) | 3.93
CCc1ccc(O)c(C(=O)NC2CCN(S(=O)(=O)CC)CC2)c1 | 5.35
Cc1ccc(S(=O)(=O)N2C[C@@H]3C[C@@H](NC(=O)C(C)(C)C)[C@@H]3C2)cc1 | 2.77
CCNC(=O)N1CCN(C(=O)c2cc(Cl)cc3cccnc23)CC1 | -1.03
CC(C)n1ccnc1C1CCN(C(=O)C2COc3ccccc3O2)CC1 (stereo unspecified) | 7.08

Where do these numbers come from? They come from ChEMBL document CHEMBL3988442.
